experiment: in vivo; details: goat, 5 mg/ml solution (sponge loading)
measure_name: concentration at 6 h (ng/mL)
Give the number; ng/mL is assumed, so skip it.

Record `CN[C@H](CC(C)C)C(=O)N[C@H]1C(=O)N[C@@H](CC(N)=O)C(=O)N[C@H]2C(=O)N[C@H]3C(=O)N[C@H](C(=O)N[C@H](C(=O)O)c4cc(O)cc(O)c4-c4cc3ccc4O)[C@H](O)c3ccc(c(Cl)c3)Oc3cc2cc(c3O[C@@H]2O[C@H](CO)[C@@H](O)[C@H](O)[C@H]2O[C@H]2C[C@](C)(N)[C@H](O)[C@H](C)O2)Oc2ccc(cc2Cl)[C@H]1O` , field concentration at 6 h: 1630

###

test: in vivo; settings: goat
measure_name: concentration at 6 h (ng/mL)
Give the number; ng/mL is assumed, so skip it.

Record `NCC[C@H](O)C(=O)N[C@@H]1C[C@H](N)[C@@H](O[C@H]2O[C@H](CN)[C@@H](O)[C@H](O)[C@H]2O)[C@H](O)[C@H]1O[C@H]1O[C@H](CO)[C@@H](O)[C@H](N)[C@H]1O` , field concentration at 6 h: 526

###

experiment: in vivo; settings: goat
measure_name: concentration at 24 h (ng/mL)
Give the number; ng/mL is assumed, so skip it.

Record `NCC[C@H](O)C(=O)N[C@@H]1C[C@H](N)[C@@H](O[C@H]2O[C@H](CN)[C@@H](O)[C@H](O)[C@H]2O)[C@H](O)[C@H]1O[C@H]1O[C@H](CO)[C@@H](O)[C@H](N)[C@H]1O` , field concentration at 24 h: 200

###

experiment: in vivo; settings: goat
measure_name: concentration at 42 h (ng/mL)
Give the number; ng/mL is assumed, so skip it.

Record `NCC[C@H](O)C(=O)N[C@@H]1C[C@H](N)[C@@H](O[C@H]2O[C@H](CN)[C@@H](O)[C@H](O)[C@H]2O)[C@H](O)[C@H]1O[C@H]1O[C@H](CO)[C@@H](O)[C@H](N)[C@H]1O` , field concentration at 42 h: 200

###

experiment: in vivo; conditions: goat, 5 mg/ml solution (sponge loading)
measure_name: concentration at 24 h (ng/mL)
Give the number; ng/mL is assumed, so skip it.

Record CN[C@H](CC(C)C)C(=O)N[C@H]1C(=O)N[C@@H](CC(N)=O)C(=O)N[C@H]2C(=O)N[C@H]3C(=O)N[C@H](C(=O)N[C@H](C(=O)O)c4cc(O)cc(O)c4-c4cc3ccc4O)[C@H](O)c3ccc(c(Cl)c3)Oc3cc2cc(c3O[C@@H]2O[C@H](CO)[C@@H](O)[C@H](O)[C@H]2O[C@H]2C[C@](C)(N)[C@H](O)[C@H](C)O2)Oc2ccc(cc2Cl)[C@H]1O [vancomycin] , field concentration at 24 h: 845

###

assay: in vivo; details: goat
measure_name: concentration at 36 h (ng/mL)
Give the number; ng/mL is assumed, so skip it.

Record NCC[C@H](O)C(=O)N[C@@H]1C[C@H](N)[C@@H](O[C@H]2O[C@H](CN)[C@@H](O)[C@H](O)[C@H]2O)[C@H](O)[C@H]1O[C@H]1O[C@H](CO)[C@@H](O)[C@H](N)[C@H]1O [amikacin] , field concentration at 36 h: 200

###

test: in vivo; settings: goat, 5 mg/ml solution (sponge loading)
measure_name: concentration at 12 h (ng/mL)
Give the number; ng/mL is assumed, so skip it.

Record CN[C@H](CC(C)C)C(=O)N[C@H]1C(=O)N[C@@H](CC(N)=O)C(=O)N[C@H]2C(=O)N[C@H]3C(=O)N[C@H](C(=O)N[C@H](C(=O)O)c4cc(O)cc(O)c4-c4cc3ccc4O)[C@H](O)c3ccc(c(Cl)c3)Oc3cc2cc(c3O[C@@H]2O[C@H](CO)[C@@H](O)[C@H](O)[C@H]2O[C@H]2C[C@](C)(N)[C@H](O)[C@H](C)O2)Oc2ccc(cc2Cl)[C@H]1O [vancomycin] , field concentration at 12 h: 703

Numbers sourced from patent US12251444B2.
